System: MOLT-4 leukemia
Assay: NCI tumour cell line growth inhibition, 48 h; in the data active = GI50 below about 0.43 µM; inactive = the rest
Labels: active, inactive

[[record]]
molecule = "NC(=O)NS(=O)(=O)c1ccc(N2N=C(C(F)(F)F)CC2c2cc(C(F)(F)F)cc(C(F)(F)F)c2)cc1 (stereo not given)"
group_label = "inactive"

[[record]]
molecule = "Cc1ccc(C(=O)N(CCCN)C(c2oc3cc(Cl)ccc3c(=O)c2Cc2ccccc2)C(C)C)cc1 (stereo not given)"
group_label = "active"

[[record]]
molecule = "O=C1C(Cl)=C(NCCN2CCOCC2)C(=O)c2ncccc21"
group_label = "inactive"

[[record]]
molecule = "O=c1cc(-c2ccccc2)oc2cc(OC/C(=N/O)c3ccccc3)ccc12"
group_label = "inactive"

[[record]]
molecule = "CCOC1Oc2ccc(C)cc2C(=O)/C1=C\\Nc1ccc(C(N)=O)cc1 (stereo not given)"
group_label = "inactive"


----------
Tested on: SK-MEL-28 melanoma
Test: NCI tumour cell line growth inhibition, 48 h
Reported TGI values follow for various molecules
Reported Metric: TGI

[[record]]
molecule = "COc1ccc(-c2nc(-c3nc4ccc(Cl)cc4[nH]3)c3ccccn23)cc1"
reported_metric = "TGI"
value = "5.34 µM"

[[record]]
molecule = "COC(=O)/C=C(/C=C1/C(C#N)=C(N)N(c2ccc(Cl)cc2)C1(C)/C(=C/C(=O)OC)C(=O)OC)C(=O)OC (stereo unspecified)"
reported_metric = "TGI"
value = "> 100 µM"

[[record]]
molecule = "CCC[CH2][Sn]1([CH2]CCC)[O]C(=O)CN=Cc2c(ccc3ccccc23)[O]1"
reported_metric = "TGI"
value = "1.13 µM"

[[record]]
molecule = "Cc1c(C)c(C)n(C2OC(CO)C(O)C(O)C2O)c(=S)c1C#N (stereo unspecified)"
reported_metric = "TGI"
value = "> 100 µM"

[[record]]
molecule = "C[N+](C)(C)CCCSc1nc2ccccc2[nH]1"
reported_metric = "TGI"
value = "> 100 µM"

[[record]]
molecule = "COc1cc(Nc2nc3ccccc3nc2-c2cccs2)cc(OC)c1OC"
reported_metric = "TGI"
value = "> 100 µM"

[[record]]
molecule = "COCCCNC(=O)C1C(=O)C(=O)N(CCCOC)C1=O (stereo unspecified)"
reported_metric = "TGI"
value = "> 100 µM"

[[record]]
molecule = "c1ccc(-c2nc3ccccc3n3c(CN4CCCCC4)nnc23)cc1"
reported_metric = "TGI"
value = "> 100 µM"

[[record]]
molecule = "O=C1c2[nH]c3ccc(Br)cc3c2CCN1Cc1ccc(Cl)cc1"
reported_metric = "TGI"
value = "31.6 µM"

[[record]]
molecule = "CCCC1N2CCCCC2[C@@H]2c3[nH]c4ccccc4c3CCN12 (stereo partly specified)"
reported_metric = "TGI"
value = "> 100 µM"

[[record]]
molecule = "COC(=O)c1cc(C)ccc1C1CN=NC12Cc1ccc(C)cc1C2=O (stereo unspecified)"
reported_metric = "TGI"
value = "> 100 µM"


----------
Tested on: COLO 205 colon
Assay: NCI tumour cell line growth inhibition, 48 h
Reported Metric: TGI (µM)

[[record]]
compound = "CC(C)(C)c1cc(CCC(=O)Nc2ccc(Cl)cc2)nc(NC#N)n1"
assay_target = "COLO 205 colon"
reported_metric = "TGI"
display_unit = "µM"
value_operator = ">"
value = 100

[[record]]
compound = "COC1(C)CP(=O)(OC(C)C)CC(C)=C1Cl (stereo not given)"
assay_target = "COLO 205 colon"
reported_metric = "TGI"
display_unit = "µM"
value_operator = "="
value = 30.2

[[record]]
compound = "C[C@]12CC[C@H](OC(=O)Cc3ccc(N(CCCl)CCCl)cc3)CC1=CC[C@@H]1[C@@H]2CC[C@]2(C)C(=O)CC[C@@H]12"
assay_target = "COLO 205 colon"
reported_metric = "TGI"
display_unit = "µM"
value_operator = ">"
value = 100

[[record]]
compound = "CCCCCCCCCCCCN(CC(O)C(O)C(OC1OC(CO)C(O)C(O)C1O)C(O)CO)C(=O)CCCCCCCCCCC (stereo not given)"
assay_target = "COLO 205 colon"
reported_metric = "TGI"
display_unit = "µM"
value_operator = "="
value = 35.3

[[record]]
compound = "Oc1c2cc(Cl)cc1COCc1cc(Cl)cc(c1O)COCc1cc(Cl)cc(c1O)COC2"
assay_target = "COLO 205 colon"
reported_metric = "TGI"
display_unit = "µM"
value_operator = ">"
value = 100


----------
Tested on: IGROV1 ovarian
Test: NCI tumour cell line growth inhibition, 48 h
Reported Metric: TGI (µM)

[[record]]
compound = "O=C1c2ccccc2C(=O)c2c1cc(S(=O)(=O)O)c(O)c2O"
reported_metric = "TGI"
value_operator = ">"
value = 100

[[record]]
compound = "CCCCCCCC(=O)OCC/C=C/C1OC1C1OC(=O)/C=C\\C=C\\c2nc(oc2C)/C=C(/C)CCC2OC2C1OC(=O)NC(C)=O (stereo not given)"
reported_metric = "TGI"
value_operator = "="
value = 0.918

[[record]]
compound = "O=C(NC12CC3CC(CC(F)(C3)C1)C2)c1ccccc1"
reported_metric = "TGI"
value_operator = ">"
value = 100

[[record]]
compound = "Cn1c2ccccc2c2ccc3c(c21)C(=O)c1ccccc1C3=O"
reported_metric = "TGI"
value_operator = "="
value = 31.4

[[record]]
compound = "COc1ccc(-c2nc(-c3nc4ccc(Cl)cc4[nH]3)c3ccccn23)cc1"
reported_metric = "TGI"
value_operator = "="
value = 22.9


----------
System: SNB-75 CNS
Experiment: NCI tumour cell line growth inhibition, 48 h; in the data active = GI50 below about 0.43 µM; inactive = the rest
Labels: active, inactive

[[record]]
compound = "O=C(CCc1nnc2sc(-c3ccc(Cl)cc3Cl)nn12)c1nc2ccccc2[nH]1"
group_label = "inactive"

[[record]]
compound = "CCN(CC)CCCC(C)Nc1c2ccc(Cl)cc2nc2ccc(O)cc12 (stereo unspecified)"
group_label = "inactive"

[[record]]
compound = "COc1ccc2c(c1)C(=O)c1c-2n(CCCn2ccnc2)c(=O)c2cc([N+](=O)[O-])ccc12"
group_label = "active"

[[record]]
compound = "Cc1ccc(C(=O)N(CCCN)C(c2oc3cc(Cl)ccc3c(=O)c2Cc2ccccc2)C(C)C)cc1 (stereo unspecified)"
group_label = "active"

[[record]]
compound = "Nc1nc(N(Cc2ccccc2)c2ccccc2)c2cn[nH]c2n1"
group_label = "inactive"

[[record]]
compound = "C[N+]1=C(/C=C/c2ccc(O)c3ncccc23)C(C)(C)c2ccccc21"
group_label = "inactive"

[[record]]
compound = "Cc1cc(-c2cnn3c(NCC4CC(C)(O)C4)cc(Oc4cccnc4)nc23)ccc1C(=O)NC1CC1 (stereo unspecified)"
group_label = "inactive"

[[record]]
compound = "CCCC(=O)OCC1OC(n2cnc3c(=S)nc[nH]c32)C(OC(=O)CCC)C1OC(=O)CCC (stereo unspecified)"
group_label = "inactive"

[[record]]
compound = "Cc1ccc(-c2nc3nc(-c4ccccc4)nc(N4CCCNCC4)c3o2)cc1"
group_label = "inactive"

[[record]]
compound = "CC/C=C\\C[C@@H](O)C/C=C1/C(=O)C=C[C@H]1C/C=C\\CCCC(=O)OC"
group_label = "inactive"

[[record]]
compound = "O=C(CC1C(=O)NN(c2ccc(Br)cc2)C1=O)c1cc(O)ccc1O (stereo unspecified)"
group_label = "inactive"


----------
Test system: NCI-H460 lung
Assay: NCI tumour cell line growth inhibition, 48 h
Reported TGI values follow for various molecules
Reported Metric: TGI

[[record]]
molecule = "NC(=O)NS(=O)(=O)c1ccc(N2N=C(C(F)(F)F)CC2c2cc(C(F)(F)F)cc(C(F)(F)F)c2)cc1 (stereo not given)"
value = "11.7 µM"

[[record]]
molecule = "CCC(C)(C)C1CCC2c3c([nH]c4ccccc34)C3C(=O)N(c4ccc(OC)cc4)C(=O)C3C2C1 (stereo not given)"
value = "> 100 µM"

[[record]]
molecule = "Oc1c2cc(Cl)cc1COCc1cc(Cl)cc(c1O)COCc1cc(Cl)cc(c1O)COC2"
value = "> 100 µM"

[[record]]
molecule = "C[C@]12CC[C@H](OC(=O)Cc3ccc(N(CCCl)CCCl)cc3)CC1=CC[C@@H]1[C@@H]2CC[C@]2(C)C(=O)CC[C@@H]12"
value = "> 100 µM"

[[record]]
molecule = "Nc1nc2c(nnn2C2CC(O)C(CO)O2)c(=O)[nH]1 (stereo not given)"
value = "> 100 µM"

[[record]]
molecule = "COc1ccc(-c2onc(N)c2-c2cc(OC)c3c(c2)OCO3)cc1"
value = "21.1 µM"

[[record]]
molecule = "CNC(=O)C1CCc2nnc(-c3ccccc3)n21 (stereo not given)"
value = "> 100 µM"

[[record]]
molecule = "COc1cc(/C=N\\N(C)C)cc(/C=N/N(C)C)c1O"
value = "> 100 µM"

[[record]]
molecule = "CCN(CC)CCCC(C)Nc1c2ccc(Cl)cc2nc2ccc(O)cc12 (stereo not given)"
value = "3.84 µM"

[[record]]
molecule = "CC(=N)OC1CC2CCC1(C)C2(C)C (stereo not given)"
value = "> 100 µM"

